Numbers sourced from the nanobody polyreactivity screen of Harvey et al. (2022).

- Method summary: yeast display, Sf9 membrane polyspecificity reagent, FACS + sequencing; frameworks hold sequencing errors
Property label: polyreactivity (PSR sort gate)

biosequence=QVQLVESAGGLVQAGGSLRLSCAASGRIFYYAMGWYRQAPGKEREFVAAISGSGGSTNYADSVKGRFTISRDNAKNTVYLQMNSLKPEDTAVYYCNAESWSWGFIYEYEYWGQGTQVTVSS measured_result="high polyreactivity"
biosequence=QVQLVESGGGLVQAGGSLRLSCAASGFIFGPYAMGWYRPAPGKERELVASISNSGDSTYADSVKGRFTISRDTAKNTVYLQMNSLKPEDTAVYYCNADGFVGTPSVDYDYWGQGTQVTVSS measured_result="low polyreactivity"
biosequence=QVQLVESGGGLVQAGGSLRLSCAASGSTFSYNAMGWYRQAPGKERELVAAISKSGGSTSYADSVKGRFTISRDNAKNTVYLQMNSQKPEDTAVYYCNARYSRKYGYWGQGTQVTVSS measured_result="high polyreactivity"
biosequence=QVQRVESGGGLLQAGGSLSLSCAASGSIFEWYAMGWYRQEPGTERELVAAIRSGGTTNYADSVKGRFTISRDHAKNTVYLQMNSLKPEVTAVYDCAAKSVTGLFRYYYWGQGTQVTVTS measured_result="low polyreactivity"
biosequence=QVQLVESGGGLFQAGGSLRLSCAASGSTLRDYVMGWYRQAPGKERELVAAISWTGDRTYYADSVKGRFTISRDNAKNTVYLQMNSLKPEDTAVYYCNAVYHVTRQGNLDSWGQGTQVTVSS measured_result="low polyreactivity"
biosequence=QVQLVESGGGLVQAGGSLRLSCAASGFTFYGYAMGWYRQAPGKERELVAAISSSGGRTYYADSVKGRFTISRDNAKNTVYLQMNSLKPEDTAVYYCAADYTSRDYYYWGQGTQVTVSS measured_result="high polyreactivity"
biosequence=QVQLQESGGGLVQAGGSLRLSCAASGSIAHYIFMGWYRQAPGKEREFVAGIGYGGTTNYADSVKGRFTISRDNAKNTVYLQMNSLKPEDTAMYYCAAREATEFYLYYWGQGTQVTVSS measured_result="low polyreactivity"
biosequence=QVQLVESGGGLVQARGSLRLSSAASGIIFYEYAMGCYRQAPGKERELVAAISDTGGSTYYADSVKGRFTISRDNAKNTVYLQMNSLKPEDTAVYYCAAEYLAYYSGYDYWGQGTQVTVSS measured_result="high polyreactivity"
biosequence=QVQLVESGGGLVQAGGSLRLSCAASGFIFEKYTMGWYRQAPGKERELVAAITWNGGSTYYADSVKGRFTISRDNAKNTVYLQMNSLKPEDTAVYYCAARVGWNKRRYDYWGQGTQVNVSS measured_result="low polyreactivity"
biosequence=QVQLVESGGGLVQAGGSLRLSCAASGLIFRGYAMGWYRQAPGKERELVAAISRSGGRTYYADSVKGRYTISRDNAKNTVYLQMNSLKPVDTAVYYCAAQWLYLEYDYWGQGTQVTVSS measured_result="high polyreactivity"
biosequence=QVQHVESGGGLVQAGGSLRLSCAASGSTFRTYGMGWYRQAPGKERELVAGITRGGSTTYADSVKGRFTISRDNAKNTVYLQMNSLKPEDTAVYYCNAGYVRVRAHNYDYWGQGTQVTVSS measured_result="high polyreactivity"

###

- Method summary: yeast display, Sf9 membrane polyspecificity reagent, FACS + sequencing; frameworks hold sequencing errors
Property label: polyreactivity (PSR sort gate)

biosequence=QVQLVESGGGLVQAGGSLRLSCAASGRTFKYYAMGWYRQAPGKERELVAGISSTGRTNYADSVKGRFTISRDNAKNTVYLQMNSLKPEDTAVYYCNAERKSFGKFDYWGQGTQVTVSS property_label="polyreactivity (PSR sort gate)" measured_result="high polyreactivity"
biosequence=QVQLVESGGGLVQEGGSLRLSCSASGRIFGSYAMGWNRPATGKERELVAAINSSGGRTYYADSVKGRFTISRDNAKNTVYLQMNSLKPDVTAVYYCNARRVYSQRYDYWGQGTQVTVSS property_label="polyreactivity (PSR sort gate)" measured_result="high polyreactivity"
biosequence=QVQLVESGGGLVQAGGSLRLSSAASGRTFYFYAMGWYRQAPGKERELVADIRGITGSTYYADSVKGRFTISRDNAKNTVYLQMNSLKPEDTAVYYCNAYPYIARAPYEYWGQGTQVTVSS property_label="polyreactivity (PSR sort gate)" measured_result="high polyreactivity"
biosequence=QVQLVESGGGLVQAGGSLRLTCAASGYTFAGNAMGWYRQAPGKERELVAALSRSGGRTYYADSVKGRFTISRDNAKTTVYLQMNSLKPEDTAVYYCAASYRYTEYVSTWGFGYWGQGTQVTVSS property_label="polyreactivity (PSR sort gate)" measured_result="high polyreactivity"
